- ASSAYED_SYSTEM: T1, full-length beta-Catenin (Uniprot ID P35222) (Homo sapiens (Human), UniProt P35222 2-781)
- T1 construct: Used full-length in both the FP and the AlphaScreen assay; also called B-Catenin; bCat
- T1 sequence: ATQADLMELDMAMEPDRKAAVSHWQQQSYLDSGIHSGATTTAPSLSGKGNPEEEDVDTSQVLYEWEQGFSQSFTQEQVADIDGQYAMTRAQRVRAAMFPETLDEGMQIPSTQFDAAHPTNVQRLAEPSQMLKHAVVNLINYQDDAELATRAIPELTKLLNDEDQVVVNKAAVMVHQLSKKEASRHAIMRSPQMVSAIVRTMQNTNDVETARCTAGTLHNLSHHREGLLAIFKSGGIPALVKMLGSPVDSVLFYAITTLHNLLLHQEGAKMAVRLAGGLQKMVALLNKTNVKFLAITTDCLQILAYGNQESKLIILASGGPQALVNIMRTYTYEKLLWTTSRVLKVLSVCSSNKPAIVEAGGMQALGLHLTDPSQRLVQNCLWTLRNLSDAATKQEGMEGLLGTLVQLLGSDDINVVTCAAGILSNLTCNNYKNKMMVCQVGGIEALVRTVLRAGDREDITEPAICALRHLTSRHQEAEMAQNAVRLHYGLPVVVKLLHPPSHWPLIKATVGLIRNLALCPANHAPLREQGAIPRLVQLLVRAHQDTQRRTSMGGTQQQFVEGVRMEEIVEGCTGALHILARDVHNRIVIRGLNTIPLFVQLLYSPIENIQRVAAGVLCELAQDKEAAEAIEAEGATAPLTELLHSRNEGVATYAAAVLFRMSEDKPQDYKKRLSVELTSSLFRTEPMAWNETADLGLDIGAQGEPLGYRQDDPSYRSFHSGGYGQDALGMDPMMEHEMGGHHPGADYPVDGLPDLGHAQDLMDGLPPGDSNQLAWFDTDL
- TEST_METHOD_NOTES: AlphaScreen competition; full-length beta-catenin, biotin-TCF4(10-53) probe
Starred links: 1 amine or outer side, 2 acyl side, 3 side chain; linkers in the order of their positions; H or OH if unused. Positions of bridges follow the written chain, without caps; N, C: chain ends. Non-standard residues stand in square brackets, D forms with d. Primed or numbered codes have the meaning given here. RdN(3) = (R)-4-(((allyloxy)carbonyl)(methyl)amino)-2-amino-2-methylbutanoic acid, stapling residue, C=CCOC(=O)N(C)CC[C@@](C)(N[*:1])C(=O)[*:2]; B5(21) = 2-amino-2-(pent-4-en-1-yl)hept-6-enoic acid, bis(4-pentenyl)glycine (stitching residue), C=CCCCC(CCCC=C)(N[*:1])C(=O)[*:2]; SeN = (S)-5-(((allyloxy)carbonyl)(methyl)amino)-2-amino-2-methylpentanoic acid, C=CCOC(=O)N(C)CCC[C@](C)(N[*:1])C(=O)[*:2]; PyrS = (S)-1-((allyloxy)carbonyl)-3-aminopyrrolidine-3-carboxylic acid, C=CCOC(=O)N1CC[C@@](N[*:1])(C(=O)[*:2])C1; S7 = C[C@@](CCCCCC=[*:3])(N[*:1])C(=O)[*:2]; αAllylPro = C=CC[C@@]1(C(=O)O)CCCN1; R8 = C=CCCCCCC[C@@](C)(N)C(=O)O; Cha = N[C@@H](CC1CCCCC1)C(=O)O
What EC50 was measured for each of the following?

// query Specify EC50 for Ac-[αAllylPro]DA[B5(21)]DDAAFV[SeN]FWQ-NH2 (staple 1-4, 4-11, Stapled (stitched) peptide; also called Ac-PL3-Asp-Ala-B5-Asp-Asp-Ala-Ala-Phe-Val-SeN-Phe-Trp-Gln-NH2) [I-54] and stop.
// result 0.482 µM

// query Specify EC50 for Ac-FDA[R8]DDAAFV[PyrS][Cha]WQ-NH2 (staple 4-11, Stapled peptide; also called Ac-Phe-Asp-Ala-R8-Asp-Asp-Ala-Ala-Phe-Val-PyrS-Cha-Trp-Gln-NH2) [I-60] and stop.
// result ≥ 10 µM

// query Specify EC50 for Ac-FD[RdN(3)]ADDAAF[S7]AFWQ-NH2 (staple 3-10; also: later-eluting HPLC isomer, E/Z not assigned, Stapled peptide; also called Ac-Phe-Asp-RdN-Ala-Asp-Asp-Ala-Ala-Phe-S7-Ala-Phe-Trp-Gln-NH2) [I-50] and stop.
// result ≥ 10 µM

FYI, the data here is from patent US20240116985A1.
